# System: HCT-15 colon
# Test Description: NCI tumour cell line growth inhibition, 48 h
A collection of molecules and their measured GI50

>  <Molecule>
CCOC(=O)Nc1ccc2c(c1)N(C(=O)CCN(CC)CC)c1ccccc1S2

>  <GI50>
35.7 µM

$$$$
>  <Molecule>
COc1cc(/C=C/C(=O)c2c(C)nc3ccccc3c2C)ccc1OCCCCOc1cc2c(cc1OC)C(=O)N1CCC[C@H]1C=N2

>  <GI50>
1.71 µM

$$$$
>  <Molecule>
CCC(C)CC(C)C(=O)c1c(O)ccn(O)c1=O (stereo not given)

>  <GI50>
0.46 µM

$$$$
>  <Molecule>
C=C(CN1CCN(c2ccccc2C(F)(F)F)CC1)c1ccc(C(=O)Nc2ccccc2N)cc1

>  <GI50>
4.88 µM

$$$$

# next molecule below
Note to self: GI50 recorded for O=C(c1cccs1)c1nc2cc(Cl)ccc2[n+]([O-])c1C(F)(F)F was > 100 µM
